# Procedure Summary: Cytotoxicity against human HG23 cells up to 320 uM
# Type: cell-based

>  <Compound>
O=C(N[C@@H](CC1CCCCC1)C(=O)N[C@@H](CC1CCNC1=O)C(O)S(=O)(=O)[O-])OCc1ccccc1.[Na+] (stereo not given in full)

>  <Activity>
Non-toxic

$$$$
>  <Compound>
CCCC[C@H](NC(=O)OCc1ccccc1)C(=O)N[C@@H](CC1CCNC1=O)C(O)S(=O)(=O)[O-].[Na+] (stereo not given in full)

>  <Activity>
Non-toxic

$$$$
>  <Compound>
CC(C)C[C@H](NC(=O)OCc1ccc(F)cc1)C(=O)N[C@H](C=O)CC1CCNC1=O (stereo not given in full)

>  <Activity>
Non-toxic

$$$$
>  <Compound>
CC(C)C[C@H](NC(=O)OCCC1CCCCC1)C(=O)N[C@@H](CC1CCNC1=O)C(O)S(=O)(=O)[O-].[Na+] (stereo not given in full)

>  <Activity>
Toxic

$$$$
>  <Compound>
CC(C)C[C@H](NC(=O)OCCC1CCCCC1)C(=O)N[C@H](C=O)CC1CCNC1=O (stereo not given in full)

>  <Activity>
Toxic

$$$$
>  <Compound>
CCC[C@H](NC(=O)OCc1ccccc1)C(=O)N[C@H](C=O)CC1CCNC1=O (stereo not given in full)

>  <Activity>
Non-toxic

$$$$
>  <Compound>
CC(C)C[C@H](NC(=O)OCc1ccccc1)C(=O)N[C@H](C=O)CC1CCNC1=O (stereo not given in full)

>  <Activity>
Non-toxic

$$$$
>  <Compound>
O=C(N[C@@H](Cc1ccccc1)C(=O)N[C@@H](CC1CCNC1=O)C(O)S(=O)(=O)[O-])OCc1ccccc1.[Na+] (stereo not given in full)

>  <Activity>
Non-toxic

$$$$
>  <Compound>
O=C[C@H](CC1CCNC1=O)NC(=O)[C@H](Cc1ccccc1)NC(=O)OCc1ccccc1 (stereo not given in full)

>  <Activity>
Non-toxic

$$$$
>  <Compound>
CC(C)C[C@H](NC(=O)OCc1ccccc1)C(=O)N[C@@H](CC1CCNC1=O)C(O)S(=O)(=O)[O-].[Na+] (stereo not given in full)

>  <Activity>
Non-toxic

$$$$
>  <Compound>
CC(C)C[C@H](NC(=O)OCCc1ccccc1)C(=O)N[C@H](C=O)CC1CCNC1=O (stereo not given in full)

>  <Activity>
Non-toxic

$$$$
>  <Compound>
CCC[C@H](NC(=O)OCc1ccccc1)C(=O)N[C@@H](CC1CCNC1=O)C(O)S(=O)(=O)[O-].[Na+] (stereo not given in full)

>  <Activity>
Non-toxic

$$$$
>  <Compound>
CCOC(=O)N[C@@H](C)C(=O)N[C@@H](CC1CCNC1=O)C(O)(C(=O)NC1CC1)S(=O)(=O)[O-].[Na+] (stereo not given in full)

>  <Activity>
Non-toxic

$$$$
>  <Compound>
O=C[C@H](CC1CCNC1=O)NC(=O)[C@H](CC1CCCCC1)NC(=O)OCc1ccccc1 (stereo not given in full)

>  <Activity>
Non-toxic

$$$$
>  <Compound>
CC(C)C[C@H](NC(=O)OCc1cccc(F)c1)C(=O)N[C@H](C=O)CC1CCNC1=O (stereo not given in full)

>  <Activity>
Non-toxic

$$$$
